# target desc: P2X purinoceptor 3 (Homo sapiens)
# assay comment: Antagonist activity at recombinant human P2X3 receptor expressed in Xenopus oocytes assessed as inhibition of ATP-induced ion current at 10 uM preincubated for 20 mins followed by ATP addition by two-electrode voltage clamp assay relative to control
# Assay type: cell-based
inhibition values, listed per item
endpoint label: inhibition

COc1cccc(CCc2nc(C)c(O)c(C(C)=O)c2C(=O)O)c1 ... 15.8%
CC(=O)c1c(O)c(C)nc(Cc2ccccc2)c1C(=O)O ... 18.3%
COc1ccccc1CCc1nc(C)c(O)c(C(C)=O)c1C(=O)O ... 6.3%
Cc1nc(Cc2ccccc2)c(C(=O)O)c(C(=O)O)c1O ... 31.4%
COc1ccc(CCc2nc(C)c(O)c(C(C)=O)c2C(=O)O)cc1 ... 42.2%
CC(=O)c1c(O)c(C)nc(CCc2ccccc2)c1C(=O)O ... 37.3%
Cc1nc(COCc2ccccc2)c(C(=O)O)c(C(=O)O)c1O ... 23.1%
CC(=O)c1c(O)c(C)nc(/C=C/c2ccccc2)c1C(=O)O ... 27.4%
COc1ccccc1CCc1nc(C)c(O)c(C(=O)O)c1C(=O)O ... 34.5%
COc1cccc(CCc2nc(C)c(O)c(C(=O)O)c2C(=O)O)c1 ... 45.5%

----------
# target desc: P2X purinoceptor 1 (Mus musculus) (UniProt P51576)
# Sequence (whole entry): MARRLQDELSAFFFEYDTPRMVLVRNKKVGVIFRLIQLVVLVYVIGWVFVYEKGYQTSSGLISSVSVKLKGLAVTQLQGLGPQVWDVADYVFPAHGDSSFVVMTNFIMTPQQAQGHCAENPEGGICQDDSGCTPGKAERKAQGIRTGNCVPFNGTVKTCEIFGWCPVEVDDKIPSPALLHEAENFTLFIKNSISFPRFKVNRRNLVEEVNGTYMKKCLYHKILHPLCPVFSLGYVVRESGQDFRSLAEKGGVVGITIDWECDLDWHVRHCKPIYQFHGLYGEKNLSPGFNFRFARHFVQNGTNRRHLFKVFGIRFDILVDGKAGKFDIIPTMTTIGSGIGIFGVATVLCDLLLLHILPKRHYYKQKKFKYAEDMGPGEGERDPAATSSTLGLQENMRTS
# assay comment: Antagonist activity at recombinant mouse P2X1 receptor expressed in Xenopus oocytes assessed as inhibition of ATP-induced ion current at 10 uM preincubated for 20 mins followed by ATP addition by two-electrode voltage clamp assay relative to control
# Format: cell-based
endpoint label: inhibition (%)

Cc1nc(Cc2cccc(Oc3ccccc3)c2)c(C(=O)O)c(C(=O)O)c1O ... 41.8
Cc1nc(Cc2cccc(Oc3ccccc3)c2)c2c(c1O)C(O)OC2=O (configuration not stated) ... 45
COc1ccccc1CCc1nc(C)c(O)c(C(=O)O)c1C(=O)O ... 49.8
Cc1nc(Cc2ccc(Oc3ccccc3)cc2)c(C(=O)O)c(C(=O)O)c1O ... 40
Cc1nc(CCc2cccc(Oc3ccccc3)c2)c(C(=O)O)c(C(=O)O)c1O ... 38.3
COc1ccccc1CCc1nc(C)c(O)c(C(C)=O)c1C(=O)O ... 11.4
COc1ccc(CCc2nc(C)c(O)c(C(C)=O)c2C(=O)O)cc1 ... 52
CC(=O)c1c(O)c(C)nc(CCc2ccccc2)c1C(=O)O ... 47.9
Cc1nc(Cc2ccccc2)c(C(=O)O)c(C(=O)O)c1O ... 54.2
Cc1nc(Cc2cccc(Oc3ccccc3)c2)c(/C=C/C(=O)O)c(C=O)c1O ... 18.3
COc1cccc(CCc2nc(C)c(O)c(C(C)=O)c2C(=O)O)c1 ... 29.9
COc1cccc(CCc2nc(C)c(O)c(C(=O)O)c2C(=O)O)c1 ... 52.4
Cc1nc(CC(c2ccccc2)c2ccccc2)c(C(=O)O)c(C(=O)O)c1O ... 42
CC(=O)c1c(O)c(C)nc(Cc2ccccc2)c1C(=O)O ... 44.2
Cc1nc(Cc2ccccc2Oc2ccccc2)c(C(=O)O)c(C(=O)O)c1O ... 49.6
Cc1nc(Cc2cccc(Oc3ccccc3)c2)c(CCC(=O)O)c(C=O)c1O ... 23
Cc1nc(-c2cccc(Oc3ccccc3)c2)c(C(=O)O)c(C(=O)O)c1O ... 49.7
